Assay system Cytochrome P450 3A4 (Homo sapiens, UniProt P08684); read-out recorded as IC50.

Record Smiles	Reported
CCN1CCC(Oc2ccc(C(=O)Nc3ccc(NC(=O)Nc4cc(C(C)(C)C)on4)cc3)nc2)CC1	> 40 µM

Field: next molecule
Look up IC50 for this molecule: CN1C(C)(C)CC(Oc2ccc(C(=O)Nc3ccc(NC(=O)Nc4cc(C(C)(C)C)on4)cc3)nc2)CC1(C)C
> 40 µM

###

Experiment: Oral bioavailability in Sprague-Dawley rat plasma at 10 mg/kg by LC-MS/MS analysis
Format: ADME, organism-based
Settings: Sprague-Dawley, plasma
Documented bioavailability across a set of molecules
Note: unit % is implicit; provide only the numeric part.

Record Smiles	Units Of Measure	bioavailability
CC(C)(C)c1cc(NC(=O)Nc2ccc(NC(=O)c3cc4ccccc4cn3)cc2)no1	%	9
CC(C)(C)c1cc(NC(=O)Nc2ccc(NC(=O)c3ccc(OC4CCN(C5CC5)CC4)cn3)cc2)no1	%	36
Cc1ccnc(C(=O)Nc2ccc(NC(=O)Nc3cc(C(C)(C)C)on3)cc2)c1	%	4
CCN1CCC(c2ccc(C(=O)Nc3ccc(NC(=O)Nc4cc(C(C)(C)C)on4)cc3)nc2)CC1	%	9.9

Field: next molecule
Look up bioavailability for this molecule: CN1C(C)(C)CC(Oc2ccc(C(=O)Nc3ccc(NC(=O)Nc4cc(C(C)(C)C)on4)cc3)nc2)CC1(C)C
31.5
